- Test system: HOP-92
- ASSAY: NCI tumour cell line growth inhibition, 48 h
Calls of active or inactive are those of the source. Rule as the data show it: active = GI50 up to about 1.1 µM and inactive = higher.
Classes used: active, inactive

MOLECULE: CC1(C)C[C@H]2[C@H](O)C(CO)=C3C(=O)[C@@H](O)[C@]3(C)[C@H]2C1
QUALITATIVE LABEL: inactive
//
MOLECULE: O=C1C=CC(=O)C(N(CCO)CCO)=C1.O=C1C=CC2(O)OCCN(CCO)C2=C1
QUALITATIVE LABEL: inactive
//
MOLECULE: N#Cc1c(-c2ccc([N+](=O)[O-])cc2)c(C#N)c(=O)n(NS(=O)(=O)c2ccccc2)c1-c1ccccc1
QUALITATIVE LABEL: inactive
//
MOLECULE: C[C@]12O[C@@]3(C)O[C@@]3(C)[C@]3(C)O[C@]3(C)[C@@]1(C)O2
QUALITATIVE LABEL: inactive
//
MOLECULE: CC(=O)OCOC(=O)CN(CC(=O)OCOC(C)=O)Cc1cc2c(cc1OC(C)=O)Oc1cc(OC(C)=O)c(CN(CC(=O)OCOC(C)=O)CC(=O)OCOC(C)=O)cc1C21OC(=O)c2ccccc21
QUALITATIVE LABEL: active
//
MOLECULE: CC(C)=CCC/C(=C\CC/C(=C\CCc1ccoc1)C(=O)O)C(=O)O
QUALITATIVE LABEL: inactive
//
MOLECULE: COc1ccc2c(c1)CCc1c-2nc2cc3c(cc2c1O)OCO3
QUALITATIVE LABEL: inactive
//
MOLECULE: O=C(O)C(Cc1ccccc1)NCc1c(O)ccc2c(-c3ccccc3)cc(=O)oc12 (stereo not given)
QUALITATIVE LABEL: inactive
//
MOLECULE: COc1ccccc1CNC(=O)[C@H](Cc1ccc(O)cn1)NC(C)=O
QUALITATIVE LABEL: inactive
//
MOLECULE: CC(CN1CC(=O)NC(=O)C1)N1CC(=O)NC(=O)C1 (stereo not given)
QUALITATIVE LABEL: inactive
